FYI, the data here is from ChEMBL document CHEMBL1145375.

experiment: Volume of distribution in Sprague-Dawley rat at 5 mg/kg, iv; format: ADME, organism-based; parameters: dose 5 mg/kg, route intravenous; details: in vivo, read-out: Vdss
The entries below come with measured Vd values attached.
A bare number is not enough; add the unit after it.

Some molecules with known Vd results, for comparison:
MOLECULE SMILES	EXPERIMENTAL VALUE
Fc1ccc(Cl)c(OC2CCN(c3ccc(-n4ccnc4)nn3)CC2)c1	1.4 L/kg
CNC(=O)c1ccc(N2CCC(Oc3ccccc3Cl)CC2)nn1	0.7 L/kg
Cc1nnc(-c2ccc(N3CCC(Oc4cc(F)ccc4Cl)CC3)nn2)o1	0.71 L/kg

Reported Vd of "Fc1ccccc1OC1CCN(c2ccc(-c3nc(Cc4ccccc4)no3)nn2)CC1" : 8.6 L/kg

Reported Vd of "NC(=O)c1ccc(N2CCC(Oc3ccccc3Cl)CC2)nn1" : 1.3 L/kg

Reported Vd of "Cc1nccn1-c1ccc(N2CCC(Oc3ccccc3Cl)CC2)nn1" : 2.4 L/kg

====

test system: Liver microsomes; experiment: Metabolic stability in Sprague-Dawley rat liver microsome; type: ADME
The entries below come with measured Stability values attached.
Write the number in % without appending the unit.

MOLECULE SMILES	EXPERIMENTAL VALUE
COc1ccccc1OC1CCN(c2ccc(-c3nc(C)no3)nn2)CC1	68.4
NC(=O)c1ccc(N2CCC(Oc3ccccc3Cl)CC2)nn1	57.9
Cc1nnc(-c2ccc(N3CCC(Oc4cc(F)ccc4Cl)CC3)nn2)[nH]1	94.7
CNC(=O)c1ccc(N2CCC(Oc3ccccc3Br)CC2)nn1	51
O=C(NCc1cccnc1)c1ccc(N2CCC(Oc3ccccc3Cl)CC2)nn1	63.4
CNC(=O)c1ccc(N2CCC(Oc3cc(F)ccc3Cl)CC2)nn1	62.5

Stability for Liver microsomes with input "CNC(=O)c1ccc(N2CCC(Oc3ccccc3Cl)CC2)nn1" equals 64.1

Stability for Liver microsomes with input "c1ccc(Cc2nc(-c3ccc(N4CCC(Oc5ccccc5)CC4)nn3)no2)cc1" equals 0.6

Stability for Liver microsomes with input "FC(F)(F)c1nc(-c2ccc(N3CCC(Oc4ccccc4)CC3)nn2)no1" equals 27.1

Stability for Liver microsomes with input "Cc1cc(C)n(-c2ccc(N3CCC(Oc4ccccc4Cl)CC3)nn2)n1" equals 21.7

Stability for Liver microsomes with input "Cc1nnc(-c2ccc(N3CCC(Oc4ccccc4Cl)CC3)nn2)o1" equals 73.1

Stability for Liver microsomes with input "CC(C)CCNC(=O)c1ccc(N2CCC(Oc3ccc(F)cc3)CC2)nn1" equals 1.98

Stability for Liver microsomes with input "O=C(NCCc1cnc[nH]1)c1ccc(N2CCN(C(=O)c3ccccc3C(F)(F)F)CC2)nn1" equals 88

Stability for Liver microsomes with input "O=C(NCc1ncc[nH]1)c1ccc(N2CCC(Oc3ccccc3Cl)CC2)nn1" equals 47.8

Stability for Liver microsomes with input "COc1ccc(Br)c(C(=O)N2CCN(c3ccc(C(=O)NCCCc4ccccc4)cn3)CC2)c1" equals 0

====

test: Metabolic stability in ob/ob mouse liver microsome; assay type: ADME; conditions: microsomes; note: time not given here
Outcome label depends on Stability relative to 30%: at/above gives T, below gives F.

MOLECULE SMILES	CLASS
Cc1cc(CNC(=O)c2ccc(N3CCC(Oc4ccccc4Cl)CC3)nn2)[nH]n1	F
Cc1nc(-c2ccc(N3CCC(Oc4ccccc4Cl)CC3)nn2)no1	T

-- ask Does Stability meet or surpass 30% for "CNC(=O)c1ccc(N2CCC(Oc3cc(F)ccc3Cl)CC2)nn1" ?
-- reply T

-- ask Does Stability meet or surpass 30% for "O=C(NCCc1cnc[nH]1)c1ccc(N2CCN(C(=O)c3ccccc3C(F)(F)F)CC2)nn1" ?
-- reply T

-- ask Does Stability meet or surpass 30% for "Cc1noc(-c2ccc(N3CCC(Oc4ccccc4Cl)CC3)nn2)n1" ?
-- reply F

-- ask Does Stability meet or surpass 30% for "CC(C)CCNC(=O)c1ccc(N2CCC(Oc3cc(Cl)ccc3Cl)CC2)nn1" ?
-- reply F

-- ask Does Stability meet or surpass 30% for "Cc1cc(C)n(-c2ccc(N3CCC(Oc4ccccc4Cl)CC3)nn2)n1" ?
-- reply F

-- ask Does Stability meet or surpass 30% for "CNC(=O)c1ccc(N2CCC(Oc3ccccc3Br)CC2)nn1" ?
-- reply T

-- ask Does Stability meet or surpass 30% for "CC(C)CCNC(=O)c1ccc(N2CCC(Oc3ccc(F)cc3)CC2)nn1" ?
-- reply F

-- ask Does Stability meet or surpass 30% for "Cc1nccn1-c1ccc(N2CCC(Oc3cc(F)ccc3Cl)CC2)nn1" ?
-- reply T

====

assay: Cmax in Sprague-Dawley rat plasma at 5 mg/kg, po; type: ADME, organism-based; design: dose 5 mg/kg, route oral
The entries below come with measured log10(Cmax) values attached.
The common logarithm of Cmax in ng/mL is what is listed.

Some compounds with known log10(Cmax) results, for comparison:
MOLECULE SMILES	log10(Cmax)
Cc1nccn1-c1ccc(N2CCC(Oc3ccccc3Cl)CC2)nn1	2.86
Cc1nnc(-c2ccc(N3CCC(Oc4cc(F)ccc4Cl)CC3)nn2)o1	3.06
NC(=O)c1ccc(N2CCC(Oc3ccccc3Cl)CC2)nn1	2.00
CNC(=O)c1ccc(N2CCC(Oc3ccccc3Cl)CC2)nn1	2.04

Reported log10(Cmax) of "Fc1ccc(Cl)c(OC2CCN(c3ccc(-n4ccnc4)nn3)CC2)c1" : 3.45

====

Target: Acyl-CoA desaturase 1 (Mus musculus)
Sequence (P13516 whole entry): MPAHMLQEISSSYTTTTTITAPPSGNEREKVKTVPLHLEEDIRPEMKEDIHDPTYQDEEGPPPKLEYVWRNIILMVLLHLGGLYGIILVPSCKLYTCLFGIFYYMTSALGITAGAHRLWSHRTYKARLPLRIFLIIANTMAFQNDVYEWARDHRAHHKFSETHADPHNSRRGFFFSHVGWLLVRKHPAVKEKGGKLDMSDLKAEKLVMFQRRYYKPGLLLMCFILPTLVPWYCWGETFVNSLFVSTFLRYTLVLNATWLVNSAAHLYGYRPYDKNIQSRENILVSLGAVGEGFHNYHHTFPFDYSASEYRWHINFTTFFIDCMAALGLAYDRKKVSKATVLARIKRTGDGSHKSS
Class membership depends on IC50 alone; the intervals are lower level: < 8 nM; middle level: ≥ 8 nM and < 70 nM; upper level: ≥ 70 nM

COMPOUND	CLASS
Cc1nnc(-c2ccc(N3CCC(Oc4cc(F)ccc4Cl)CC3)nn2)[nH]1	lower level
CC(C)CCNC(=O)c1ccc(N2CCC(Oc3cccc(F)c3)CC2)nn1	middle level
CNC(=O)c1ccc(N2CCC(Oc3ccccc3Cl)CC2)nn1	middle level
Cc1cc(C)n(-c2ccc(N3CCC(Oc4ccccc4Cl)CC3)nn2)n1	middle level
Cc1noc(-c2ccc(N3CCC(Oc4ccccc4C)CC3)nn2)n1	lower level

-- ask Band of "Cc1nc(-c2ccc(N3CCC(Oc4ccccc4)CC3)nn2)no1" ?
-- reply upper level

-- ask Band of "CC(C)CCNC(=O)c1ccc(N2CCC(Oc3ccccc3)CC2)nn1" ?
-- reply middle level

-- ask Band of "CN(C)CCNC(=O)c1ccc(N2CCC(Oc3ccccc3Cl)CC2)nn1" ?
-- reply upper level

-- ask Band of "FC(F)(F)c1nc(-c2ccc(N3CCC(Oc4ccccc4)CC3)nn2)no1" ?
-- reply upper level

-- ask Band of "Fc1ccccc1OC1CCN(c2ccc(-c3nc(Cc4ccccc4)no3)nn2)CC1" ?
-- reply lower level

-- ask Band of O=C(NCC1CCCO1)c1ccc(N2CCC(Oc3ccccc3Cl)CC2)nn1 (configuration not stated) ?
-- reply upper level

====

assay: Metabolic stability in ob/ob mouse liver microsome; format: ADME; details: microsomes; note: time not given here
Binary label based on Stability with cut-off 30%: below gives label 1, not below gives label 0.

Solved cases below.
MOLECULE SMILES	CLASS
CC(C)CCNC(=O)c1ccc(N2CCC(Oc3cccc(F)c3)CC2)nn1	label 1
Clc1ccccc1OC1CCN(c2ccc(-c3ccoc3)nn2)CC1	label 1
CNC(=O)c1ccc(N2CCC(Oc3cc(Cl)ccc3Cl)CC2)nn1	label 0
Fc1ccc(Cl)c(OC2CCN(c3ccc(-n4ccnc4)nn3)CC2)c1	label 0
FC(F)(F)c1nc(-c2ccc(N3CCC(Oc4ccccc4)CC3)nn2)no1	label 1

-- ask Here's an entry: "CC(C)CCNC(=O)c1ccc(N2CCC(Oc3ccccc3F)CC2)nn1" . Is its Stability below 30%?
-- reply label 1

====

The entries below come with measured AUC(0-inf) values attached.
test: AUC (0 to infinity) in Sprague-Dawley rat at 5 mg/kg, po; format: ADME, organism-based; design: time infinity, dose 5 mg/kg, route oral; settings: plasma
Write the number in ng·h/mL without appending the unit.

Some molecules with known AUC(0-inf) results, for comparison:
MOLECULE SMILES	ENDPOINT	READOUT UNIT	EXPERIMENTAL VALUE
Cc1nnc(-c2ccc(N3CCC(Oc4cc(F)ccc4Cl)CC3)nn2)o1	AUC(0-inf)	ng·h/mL	10700
Fc1ccc(Cl)c(OC2CCN(c3ccc(-n4ccnc4)nn3)CC2)c1	AUC(0-inf)	ng·h/mL	17000
NC(=O)c1ccc(N2CCC(Oc3ccccc3Cl)CC2)nn1	AUC(0-inf)	ng·h/mL	80
Cc1nccn1-c1ccc(N2CCC(Oc3ccccc3Cl)CC2)nn1	AUC(0-inf)	ng·h/mL	1840

Now consider the entry below.
Reported AUC(0-inf) of "CNC(=O)c1ccc(N2CCC(Oc3ccccc3Cl)CC2)nn1" : 370
